Catalogue of growth inhibition readings, one per entry.
experiment: NCI Yeast Anticancer Drug Screen. Data for the bub3 strain (AID 167); conditions: S. cerevisiae bub3 mutant strain, at 50.0 µM, stronger effect = higher value
The panel holds about 79,000 compounds, 15% with a hit somewhere; the sample as a whole holds those more often.

compound	unit_string	growth inhibition
Cc1ccc(NC(=O)CC2C(=O)Nc3ccccc3S2(=O)=O)c(C)c1 (configuration not stated)	%	-2.85
COc1cc2c(cc1OC)C(=O)/C(=C/c1ccccc1)C2	%	36
CCCCc1c[nH]c(=O)[nH]c1=O	%	-12.6
CN(C)CC(O)C(=O)O (configuration not stated)	%	3.7
COC(=O)C(NC(=O)c1ccccc1)C(C)=O (configuration not stated)	%	-16.9
O=P(c1ccccc1)(c1ccccc1)c1ccccc1OCCCO	%	4.4
CN1CCN(Cc2oc(CO)cc(=O)c2O)CC1	%	16.8
COc1c(Cl)cc(Cl)cc1C(c1cc(Cl)cc(Cl)c1OC)C(Cl)(Cl)Cl	%	-3.6
CC(=O)NNc1nc(C)c(C(/C=C/c2ccc([N+](=O)[O-])cc2)=N/N)s1	%	-0.4
CC(C)C1OC2(CCCC2)OCC1(C)C (configuration not stated)	%	-4.7
CC(=O)CC(=O)Nc1ccc(C(=O)O)c(O)c1	%	32.1
Cc1c2cnccc2c(CO)c2[nH]c3ccccc3c12	%	-10.9

* * *

experiment: NCI Yeast Anticancer Drug Screen. Data for the sgs1 mgt1 strain (AID 161);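 also: 0% = growth of cultures given vehicle only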; conditions: S. cerevisiae sgs1 mgt1 strain, at 50.0 µM, stronger effect = higher value
Compounds without any hit were thinned out: in the full panel of roughly 79,000, 15% have a hit.

compound	growth inhibition, %
Cc1ccc(NC(=O)CC2C(=O)Nc3ccccc3S2(=O)=O)c(C)c1 (stereo not given)	-6.8
CCN(CC)c1cc2oc(=O)cc(C)c2cc1NC(=O)c1cc([N+](=O)[O-])cc([N+](=O)[O-])c1	-2.1
COC(=O)CC1(C)[C@H](O)[C@H]2OC(C)(C)O[C@H]2[C@@H]1O (stereo not given in full)	-18.2
Cc1c(-c2ccccc2)c2ccccc2c2ccccc12	-4.25
CC(CN(C)C)C(/C=C/c1ccccc1)=N\Nc1ccccc1 (stereo not given)	7.85

* * *

test: NCI Yeast Anticancer Drug Screen. Data for the cln2 rad14 strain (AID 165);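 also: 0% = growth equal to vehicle treated cultures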; conditions: S. cerevisiae cln2 rad14 strain, at 50.0 µM, stronger effect = higher value
The panel holds about 79,000 compounds, 15% with a hit somewhere; the sample as a whole holds those more often.
quantity_name: growth inhibition (%)

compound	quantity_name	unit_string	assay_result
COc1cccc(CCN(CCOC(N)=O)CCOC(N)=O)c1OC	growth inhibition	%	-7.35
COc1ccc(/C=C2\CCCC(C(NO)c3ccc(OC)cc3)C2=NO)cc1 (stereo unspecified)	growth inhibition	%	1.15
Nc1ccc(CC(N)C(=O)O)cc1 (stereo unspecified)	growth inhibition	%	-5.6
O=C1Oc2cc3c(c4cccc1c24)OCN(c1ccc(Cl)cc1)C3	growth inhibition	%	33
COc1ccc([N+](=O)[O-])c2c(NCCC[N+](C)(C)[O-])c3ccccc3nc12	growth inhibition	%	-46.8
COC(=O)C(=O)C(C(=O)C=C(C)C)C(=O)C(=O)Nc1cccc(C(C)=O)c1 (stereo unspecified)	growth inhibition	%	16.4
CC(C)(C)c1ccc(OCC(=O)O)cc1	growth inhibition	%	-17.4
CC(C)c1ccc(C(=O)OCC2CCCO2)cc1 (stereo unspecified)	growth inhibition	%	-13.7
CN(C)c1cc(-c2ccccc2)oc(=O)c1Cl	growth inhibition	%	-22.2
Nc1cc2c(cn1)[nH]c1ccccc12	growth inhibition	%	-16.4
O=NNc1ccc(-c2ccc(NN=O)cc2)cc1	growth inhibition	%	10.2
NC(=O)N/N=C1\CC2CCC1C2Cl (stereo unspecified)	growth inhibition	%	-0.45
COC(=O)c1nc(N)[nH]c(=O)c1-c1ccc(Cl)cc1	growth inhibition	%	14.8
CNC(=O)Nc1cc2c3c(c1)CCCN3CCC2	growth inhibition	%	-15.8
O=S1c2ccccc2N=C(c2cccc3ccccc23)CC1c1cccc2ccccc12 (stereo unspecified)	growth inhibition	%	23.8
CC(C)C(=O)/C=C/c1ccc(Cl)c(Cl)c1	growth inhibition	%	-1.85
N#CC(C#N)=C1C=Cc2ccccc2O1	growth inhibition	%	5.15
O=[N+]([O-])c1ccc(F)c(Cl)c1	growth inhibition	%	4.55
C(=N\N1CCN(/N=C/c2ccc(OCc3ccccc3)cc2)CC1)/c1ccc(OCc2ccccc2)cc1	growth inhibition	%	-19.4
O=C(NCCN1CCCC1)Nc1ccccc1Cl	growth inhibition	%	-10.1
Oc1c(Br)cc(Br)cc1/C=C/NC(=S)NC1CC2CC1C1C=CCC21 (stereo unspecified)	growth inhibition	%	-6.15
CC(C)C(C(N)=O)C(C)C	growth inhibition	%	10.7
CCN(C(=S)Nc1cccc(OC)c1)c1ccccc1	growth inhibition	%	-1.45
Cc1cc(NC(=O)NC(=O)c2ccccc2NC(=O)CN)ccc1Oc1ncc(Br)cn1	growth inhibition	%	11.4
CCCCCCCCCCCCCC#N	growth inhibition	%	5.25
Cc1oc2nc(N(C)C)n3nnnc3c2c1C	growth inhibition	%	-4.1

* * *

assay: NCI Yeast Anticancer Drug Screen. Data for the mlh1 rad18 strain (AID 175); settings: S. cerevisiae mlh1 rad18 strain growth inhibition; at 50.0 µM; stronger effect = higher value
The panel holds about 79,000 compounds, 15% with a hit somewhere; the sample as a whole holds those more often.
quantity_name: growth inhibition (%)

compound	unit_string	assay_result
Cc1ccc([Si](C)(C)c2ccccc2)cc1	%	4.9
CC(C)C(=O)C(C)(C)CCc1ccccn1	%	-8.35
C=CCS(=O)(=O)c1ccc(Cl)cc1	%	-22.2
CC(O)C(C)(C)O (stereo not drawn)	%	4.15
O=C1c2ccccc2C(=O)N1CC(O)COCc1ccccc1 (stereo not drawn)	%	-6.55
O=C(NO)c1c(F)c(F)c(C(=O)NO)c(F)c1F	%	2.1
N/C(=N\N=C\c1ccccn1)NO	%	0.7
COc1cccc(/C(C#N)=N/NC(=O)c2nc[nH]c2C)c1	%	8.95
CCOC(=O)NN(C(=O)OCC)C(C(=O)c1ccccc1)N(NC(=O)OCC)C(=O)OCC	%	22.4
CCOC1(c2ccccc2)c2ccccc2C(C)(C)c2ccccc21	%	-5.2
CCOC(=O)C(C#N)S(C)(=O)=O (stereo not drawn)	%	-1.6
CCOC(=O)CSc1ncnc2nc[nH]c12	%	9.75
O=C(OCC(OC(=O)c1ccccc1)C(OC(=O)c1ccccc1)C(O)C(O)CO)c1ccccc1 (stereo not drawn) (tested in a mixture with another compound)	%	28.6
CC(C)(C)C(=O)C1C(=O)c2ccccc2C1=O	%	31.9
NC(N)=NS(=O)(=O)c1ccc(Nc2c3ccccc3nc3c(C(=O)N4CCN(CCO)CC4)cccc23)cc1	%	-11.2
COc1ccc(/C=C2\N=C(c3ccc([N+](=O)[O-])cc3)OC2=O)cc1Br	%	29.4
CC1=N/C(=C/c2ccccc2)C(=O)O1	%	10
O=C1c2ccccc2-c2ccc(-c3ccc4c5c(cccc35)C(=O)c3ccccc3-4)c3cccc1c23	%	-34.2
COc1ccc(C(Cl)=C(c2ccc(OCCN(C)C)cc2)c2ccc(OCCN(C)C)cc2)cc1	%	20.1
COc1ccc(COC(=O)Nc2ccc([N+](=O)[O-])cc2)cc1	%	-12.2
O=C(O)Cc1cc(I)c(Oc2ccc(O)cc2)c(I)c1	%	3.9
Cc1cc(N(CCC#N)CCC#N)ccc1/C=C1N=C(/C=C/c2ccccc2)OC(=O)N\1	%	-13.7
CNC(=S)/C(C(C)=O)=C(\C)Nc1ccccc1	%	15.2

* * *

test: NCI Yeast Anticancer Drug Screen. Data for the rad50 strain (AID 155);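 also: 0% = growth of vehicle-only cultures of the same strain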; conditions: S. cerevisiae rad50 strain growth inhibition; at 50.0 µM
The panel holds about 79,000 compounds, 15% with a hit somewhere; the sample as a whole holds those more often. Calls of active or inactive are those of the source. Rule as the data show it: active = growth inhibition above about 70%; inactive = the rest.
Outcomes: 1.0 = active, 0.0 = inactive

compound	answer_label
CCC(=O)c1ccc(OC(=O)Nc2ccc(Cl)cc2[N+](=O)[O-])cc1	0.0
COc1ccc2c3c([nH]c2c1)C(C)N(S(=O)(=O)c1ccccc1)CC3 (stereo unspecified)	0.0
O=C1C(=C(c2ccccc2)N2CCCCC2)C(=O)c2ccccc21	0.0
C[Si](C)(C)c1ccc(C(=O)O)cc1	0.0
CCCCCCCCCCCCCCCCN=C1C=Cc2ccccc2C1=NCCCCCCCCCCCCCCCC	0.0
CC(=O)c1c(C)cc(C(C)(C)C)cc1C	0.0
O=[n+]1c2ccccc2n([O-])c2cn(-c3ccccc3)c(-c3ccccc3)c21	1.0
Cc1ccc(C(C)(O)C2CC2)cc1 (stereo unspecified)	0.0
CCCCSc1nc(NCC)nc(NCC)n1	0.0
CC(C)(CO)NO	0.0
O=S(=O)(O)O.[NH-]CC1(C[NH-])CCCCC1.[Pt+2]	0.0
CNC(=O)OCc1c(-c2ccccc2)c(-c2ccccc2)n(C)c1COC(=O)NC	0.0
Cc1cn(C2CCN(CC3COC(C)(C)O3)O2)c(=O)[nH]c1=O (stereo unspecified)	0.0
CCOC(=O)CCC1(C(=O)OCC)CCCC1=O (stereo unspecified)	0.0
CCCCCCN(CCCCCC)C1=CC(=O)C(=O)c2ccccc21	0.0
COc1ccc(C(=O)Nc2ccccc2)cc1	0.0
Cc1ccccc1C(=O)OC1CCCCC1	0.0
CN(C)C=Nc1cccc2c1NSN2	0.0
C1=[N+](c2ccccc2)CCN1c1ccccc1	0.0
Nc1ccccc1CO	0.0
S=C1SC(=Nc2ccccc2)C(=Nc2ccccc2)N1c1ccc2ccccc2c1	0.0
c1ccc2c(c1)cnc1cc3c(cc12)ncc1ccccc13	0.0
CN1C(=O)CC(NC(=O)CNC(=O)c2ccccc2)C1=O (stereo unspecified)	0.0
CC1=NC(=O)C(C)(c2ccccc2)N1CCc1ccccc1 (stereo unspecified)	0.0
CCN(CC)C(=O)C1Cc2ccccc2N(C)C1 (stereo unspecified)	0.0
Cc1noc(/N=C/c2ccccc2)c1C	0.0
